target: hTAPBPR^FLQ (S104F, K211L, R270Q), luminal domain, C94S (human); assay: SPR; biotinylated TAPBPR (about 1000 RU) immobilised on a streptavidin chip; peptide-loaded HLA (photolabile peptide, no UV) flowed over at 0-20 µM; 25°C; 150 mM NaCl, 20 mM sodium phosphate pH 7.4, 0.1% Tween 20; 30 µl/min, 60 s injection, 180 s dissociation; kinetic fit or one site-specific binding …
Sequence (Q9BX59 22-405 C115S/S125F/K232L/R291Q): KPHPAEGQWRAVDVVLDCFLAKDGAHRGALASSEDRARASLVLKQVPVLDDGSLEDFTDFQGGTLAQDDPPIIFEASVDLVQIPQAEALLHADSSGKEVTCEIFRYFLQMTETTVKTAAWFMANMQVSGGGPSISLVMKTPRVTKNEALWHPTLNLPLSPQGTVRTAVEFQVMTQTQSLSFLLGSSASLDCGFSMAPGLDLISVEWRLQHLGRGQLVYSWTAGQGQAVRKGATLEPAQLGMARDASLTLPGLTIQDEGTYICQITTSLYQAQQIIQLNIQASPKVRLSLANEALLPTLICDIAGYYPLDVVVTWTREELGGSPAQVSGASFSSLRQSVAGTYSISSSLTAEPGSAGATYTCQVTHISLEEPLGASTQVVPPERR
pKd: −log10 of the molar value.
reported_metric: pKd

peptide-loaded HLA-A*02:01/hβ2m/KILGFVFJV (from UniProt P61769 21-119) (peptide-MHC)	5.90

* * *

target: chicken TAPBPR, luminal domain (chicken (G. gallus)); experiment: SPR; biotinylated TAPBPR (about 1000 RU) on a streptavidin chip; peptide-loaded HLA, not UV-irradiated, injected at 0-20 μM; 25°C; 150 mM NaCl, 20 mM sodium phosphate pH 7.4, 0.1% Tween 20
pKd: −log10 of the molar value.
pKd overview
reported_metric: pKd

peptide-loaded HLA-B*08:01/hβ2m (photolabile peptide FLRGRAJGL) (from UniProt P61769 21-119) (peptide-MHC)	5.50
peptide-loaded HLA-A*24:02/hβ2m (photolabile peptide VYGJVRACL) (from UniProt P61769 21-119) (peptide-MHC)	4.76
